Target: Prothrombin (Homo sapiens, UniProt P00734)
Experiment: Partial allosteric inhibition of human thrombin using spectrozyme TH as substrate pretreated for 10 mins followed by substrate addition by spectrophotometric method
OBSERVED_PROPERTY: pIC50
A value of pIC50 is the negative decimal logarithm of a concentration given in moles per litre.

Exercise: Reported pIC50 for `CCOC(=O)c1c(C)oc2cc(OCc3ccc(OCOC)cc3)c(OCc3oc4cc(OC)c(OS(=O)(=O)O)cc4c3C(=O)OCC)cc12` : what is it?
Key: 5.48

Exercise: Also `CCOC(=O)c1c(C)oc2cc(OCC3CCCCC3)c(OCc3oc4cc(OCC5CCCCC5)c(OS(=O)(=O)O)cc4c3C(=O)OCC)cc12` ?
Key: 5.06

Exercise: Also `CCOC(=O)c1c(C)oc2cc(OCC3CCCCC3)c(OCc3oc4cc(OC)c(OS(=O)(=O)O)cc4c3C(=O)OCC)cc12` ?
Key: 5.59

Exercise: Also `CCOC(=O)c1c(C)oc2cc(OCc3ccc(OC(C)C)cc3)c(OCc3oc4cc(OC)c(OS(=O)(=O)O)cc4c3C(=O)OCC)cc12` ?
Key: 5.64

Numbers sourced from ChEMBL document CHEMBL4184294.
